Cited source: paper PMC7576608

Tgt: telomerase (Homo sapiens)
Test: Telomerase extension of 32P-end labeled primers with a single dNTP (percent primer extension)
Format: biochemical
Set-up: made in house; anti-FLAG immunopurification, eluted with 3xFLAG peptide
Condition: Primer 1; 5µM dNTP
Readout Type: % Primer Extension (%)
Hi! Could you send only the number? It should be in %, unit omitted.

Ask | Identify measured % Primer Extension associated with Cc1cn([C@H]2C[C@H](N=[N+]=[N-])[C@@H](CO)O2)c(=O)[nH]c1=O
Reply | 6.28

Ask | Identify measured % Primer Extension associated with Nc1ccn([C@H]2C[C@H](O)[C@@H](COP(=O)(O)OP(=O)(O)OP(=O)(O)O)O2)c(=O)n1
Reply | 4.15

Ask | Identify measured % Primer Extension associated with Nc1nc2c(ncn2C2CC(O)C(COP(=O)(O)OP(=O)(O)OP(=O)(O)O)O2)c(=S)[nH]1 (centres unmarked)
Reply | 0

Ask | Identify measured % Primer Extension associated with Nc1ncnc2c1[nH]c(=O)n2C1CC(O)C(COP(=O)(O)OP(=O)(O)OP(=O)(O)O)O1 (centres unmarked)
Reply | 0.00

Ask | Identify measured % Primer Extension associated with Nc1nc(O)nc2c1ncn2C1CC(O)C(COP(=O)(O)OP(=O)(O)OP(=O)(O)O)O1 (centres unmarked)
Reply | 0.00

====

Tgt: telomerase (Homo sapiens, UniProt O14746)
Sequence (O14746 whole entry): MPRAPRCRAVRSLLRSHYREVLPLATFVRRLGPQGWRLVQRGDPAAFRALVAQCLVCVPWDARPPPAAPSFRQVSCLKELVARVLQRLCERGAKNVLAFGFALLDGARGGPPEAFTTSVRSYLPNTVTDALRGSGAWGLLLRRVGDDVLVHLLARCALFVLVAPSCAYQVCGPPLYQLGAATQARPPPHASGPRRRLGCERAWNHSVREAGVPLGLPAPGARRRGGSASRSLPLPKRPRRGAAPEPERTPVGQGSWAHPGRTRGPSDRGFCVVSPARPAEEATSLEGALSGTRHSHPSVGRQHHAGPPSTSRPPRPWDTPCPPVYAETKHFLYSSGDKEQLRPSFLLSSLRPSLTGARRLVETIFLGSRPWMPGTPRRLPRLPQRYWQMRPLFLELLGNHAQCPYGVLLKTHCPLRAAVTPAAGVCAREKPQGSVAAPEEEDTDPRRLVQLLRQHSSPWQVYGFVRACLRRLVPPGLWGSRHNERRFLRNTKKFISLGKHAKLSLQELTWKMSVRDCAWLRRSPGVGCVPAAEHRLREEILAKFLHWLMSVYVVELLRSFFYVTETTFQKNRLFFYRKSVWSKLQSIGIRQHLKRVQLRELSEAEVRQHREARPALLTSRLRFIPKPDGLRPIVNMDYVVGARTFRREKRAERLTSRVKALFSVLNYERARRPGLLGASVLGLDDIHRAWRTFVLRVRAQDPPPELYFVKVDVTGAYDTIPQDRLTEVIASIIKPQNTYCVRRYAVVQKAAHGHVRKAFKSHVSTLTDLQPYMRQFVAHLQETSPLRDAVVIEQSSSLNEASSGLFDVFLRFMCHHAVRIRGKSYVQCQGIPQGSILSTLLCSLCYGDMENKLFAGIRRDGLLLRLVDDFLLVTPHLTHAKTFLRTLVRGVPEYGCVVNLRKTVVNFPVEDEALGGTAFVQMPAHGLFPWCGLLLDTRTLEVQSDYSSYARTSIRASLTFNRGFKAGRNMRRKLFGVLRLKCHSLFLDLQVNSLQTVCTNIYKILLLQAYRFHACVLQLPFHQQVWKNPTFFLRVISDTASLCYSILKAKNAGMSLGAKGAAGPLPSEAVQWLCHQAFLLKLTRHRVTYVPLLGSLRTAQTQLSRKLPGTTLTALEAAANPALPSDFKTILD
Test: Telomerase extension of 32P-end labeled primers with a single dNTP (percent primer extension)
Assay type: biochemical
Design: made in house; anti-FLAG immunopurification, eluted with 3xFLAG peptide
Condition: Primer 1; 5µM dNTP
Exercise: state measured % Primer Extension for each of the compounds provided.
Hi! Could you send only the number? It should be in %, unit omitted.

Ask | Answer briefly: % Primer Extension recorded on telomerase (Homo sapiens, UniProt O14746) for Cc1cn(C2CC(O)C(COP(=O)(O)OP(=O)(O)OP(=O)(O)O)O2)c(=O)[nH]c1=O (stereo not shown)
Reply | 30.00

Ask | Answer briefly: % Primer Extension recorded on telomerase (Homo sapiens, UniProt O14746) for O=c1[nH]cnc2c1ncn2C1CCC(COP(=O)(O)OP(=O)(O)OP(=O)(O)O)O1 (stereo not shown)
Reply | 3.46

Ask | Answer briefly: % Primer Extension recorded on telomerase (Homo sapiens, UniProt O14746) for Nc1nc2c([nH]c(=O)n2C2CC(O)C(COP(=O)(O)OP(=O)(O)OP(=O)(O)O)O2)c(=O)[nH]1 (stereo not shown)
Reply | 5.20

Ask | Answer briefly: % Primer Extension recorded on telomerase (Homo sapiens, UniProt O14746) for Nc1ncnc2c1ncn2C1CC(O)C(COP(=O)(O)OP(=O)(O)OP(=O)(O)O)O1 (stereo not shown)
Reply | 0.00

====

Exercise: state measured % Primer Extension for each of the compounds provided.
Tgt: telomerase (Homo sapiens)
Test: Telomerase extension of 32P-end labeled primers with a single dNTP (percent primer extension)
Type: biochemical
Set-up: made in house; anti-FLAG immunopurification, eluted with 3xFLAG peptide
Condition: Primer 3; 5µM dNTP
Hi! Could you send only the number? It should be in %, unit omitted.

Ask | Identify measured % Primer Extension associated with Nc1nc2c(ncn2C2CC(O)C(COP(=O)(O)OP(=O)(O)OP(=O)(O)O)O2)c(=S)[nH]1 (stereo not drawn) [6-thio-dGTP]
Reply | 6.75

Ask | Identify measured % Primer Extension associated with Cc1cn(C2CC(O)C(COP(=O)(O)OP(=O)(O)OP(=O)(O)O)O2)c(=O)[nH]c1=O (stereo not drawn) [dTTP]
Reply | 3.79

Ask | Identify measured % Primer Extension associated with Cc1cn([C@H]2C[C@H](N=[N+]=[N-])[C@@H](CO)O2)c(=O)[nH]c1=O [AZT]
Reply | 0

Ask | Identify measured % Primer Extension associated with Nc1nc2c([nH]c(=O)n2C2CC(O)C(COP(=O)(O)OP(=O)(O)OP(=O)(O)O)O2)c(=O)[nH]1 (stereo not drawn) [8-oxo-dGTP]
Reply | 0.00

Ask | Identify measured % Primer Extension associated with Nc1ncnc2c1ncn2C1CC(O)C(COP(=O)(O)OP(=O)(O)OP(=O)(O)O)O1 (stereo not drawn) [dATP]
Reply | 11.52

Ask | Identify measured % Primer Extension associated with Nc1nc(O)nc2c1ncn2C1CC(O)C(COP(=O)(O)OP(=O)(O)OP(=O)(O)O)O1 (stereo not drawn) [2-OH-dATP]
Reply | 8.27

Ask | Identify measured % Primer Extension associated with Nc1ccn([C@H]2C[C@H](O)[C@@H](COP(=O)(O)OP(=O)(O)OP(=O)(O)O)O2)c(=O)n1 [dCTP]
Reply | 0.00

Ask | Identify measured % Primer Extension associated with Nc1ncnc2c1[nH]c(=O)n2C1CC(O)C(COP(=O)(O)OP(=O)(O)OP(=O)(O)O)O1 (stereo not drawn) [8-oxo-dATP]
Reply | 0.00

Ask | Identify measured % Primer Extension associated with O=c1[nH]cnc2c1ncn2C1CCC(COP(=O)(O)OP(=O)(O)OP(=O)(O)O)O1 (stereo not drawn) [ddITP]
Reply | 0

====

Exercise: state measured % Primer Extension for each of the compounds provided.
Tgt: telomerase (Homo sapiens, UniProt O14746)
Test: Telomerase extension of 32P-end labeled primers with a single dNTP (percent primer extension)
Assay type: biochemical
Parameters: made in house; anti-FLAG immunopurification, eluted with 3xFLAG peptide
Condition: Primer 1; 500µM dNTP
Hi! Could you send only the number? It should be in %, unit omitted.

Ask | Answer briefly: % Primer Extension recorded on telomerase (Homo sapiens, UniProt O14746) for Nc1ncnc2c1[nH]c(=O)n2C1CC(O)C(COP(=O)(O)OP(=O)(O)OP(=O)(O)O)O1 (stereo not drawn)
Reply | 1.79

Ask | Answer briefly: % Primer Extension recorded on telomerase (Homo sapiens, UniProt O14746) for Nc1nc2c(ncn2C2CC(O)C(COP(=O)(O)OP(=O)(O)OP(=O)(O)O)O2)c(=S)[nH]1 (stereo not drawn)
Reply | 4.47

Ask | Answer briefly: % Primer Extension recorded on telomerase (Homo sapiens, UniProt O14746) for Nc1nc(O)nc2c1ncn2C1CC(O)C(COP(=O)(O)OP(=O)(O)OP(=O)(O)O)O1 (stereo not drawn)
Reply | 6.01

Ask | Answer briefly: % Primer Extension recorded on telomerase (Homo sapiens, UniProt O14746) for Nc1ccn([C@H]2C[C@H](O)[C@@H](COP(=O)(O)OP(=O)(O)OP(=O)(O)O)O2)c(=O)n1
Reply | 8.06

Ask | Answer briefly: % Primer Extension recorded on telomerase (Homo sapiens, UniProt O14746) for Cc1cn([C@H]2C[C@H](N=[N+]=[N-])[C@@H](CO)O2)c(=O)[nH]c1=O
Reply | 12.98

Ask | Answer briefly: % Primer Extension recorded on telomerase (Homo sapiens, UniProt O14746) for O=c1[nH]cnc2c1ncn2C1CCC(COP(=O)(O)OP(=O)(O)OP(=O)(O)O)O1 (stereo not drawn)
Reply | 6.73

Ask | Answer briefly: % Primer Extension recorded on telomerase (Homo sapiens, UniProt O14746) for Cc1cn(C2CC(O)C(COP(=O)(O)OP(=O)(O)OP(=O)(O)O)O2)c(=O)[nH]c1=O (stereo not drawn)
Reply | 45.00

Ask | Answer briefly: % Primer Extension recorded on telomerase (Homo sapiens, UniProt O14746) for Nc1ncnc2c1ncn2C1CC(O)C(COP(=O)(O)OP(=O)(O)OP(=O)(O)O)O1 (stereo not drawn)
Reply | 3.63

Ask | Answer briefly: % Primer Extension recorded on telomerase (Homo sapiens, UniProt O14746) for Nc1nc2c([nH]c(=O)n2C2CC(O)C(COP(=O)(O)OP(=O)(O)OP(=O)(O)O)O2)c(=O)[nH]1 (stereo not drawn)
Reply | 8.42

====

Tgt: UniProt:O14746
Test: Telomerase repeat processivity IC50: modified dNTP titrated into reactions with all four natural dNTPs
Assay type: biochemical
Design: made in house; anti-FLAG immunopurification, eluted with 3xFLAG peptide
Condition: cellular relevant natural dNTPs, modified dNTP titrated 0 to 10,000 μM; based on repeat processivity; mean ± SD; read-out: Telomerase processivity IC50
Exercise: state measured IC50 for each of the compounds provided.
Hi! Could you send only the number? It should be in µM, unit omitted.

Ask | Identify measured IC50 associated with Cc1cn([C@H]2C[C@H](N=[N+]=[N-])[C@@H](CO[P@](=O)(O)O[P@](=O)(O)OP(=O)(O)O)O2)c(=O)[nH]c1=O [AZT-TP]
Reply | 402

Ask | Identify measured IC50 associated with Nc1ncnc2c1[nH]c(=O)n2C1CC(O)C(COP(=O)(O)OP(=O)(O)OP(=O)(O)O)O1 (stereo not drawn) [8-oxo-dATP]
Reply | 946

Ask | Identify measured IC50 associated with Nc1nc(O)nc2c1ncn2C1CC(O)C(COP(=O)(O)OP(=O)(O)OP(=O)(O)O)O1 (stereo not drawn) [2-OH-dATP]
Reply | 103

Ask | Identify measured IC50 associated with Nc1nc2c([nH]c(=O)n2C2CC(O)C(COP(=O)(O)OP(=O)(O)OP(=O)(O)O)O2)c(=O)[nH]1 (stereo not drawn) [8-oxo-dGTP]
Reply | 1690

Ask | Identify measured IC50 associated with O=c1[nH]cnc2c1ncn2C1CCC(COP(=O)(O)OP(=O)(O)OP(=O)(O)O)O1 (stereo not drawn) [ddITP]
Reply | 61

Ask | Identify measured IC50 associated with Nc1nc2c(ncn2C2CC(O)C(COP(=O)(O)OP(=O)(O)OP(=O)(O)O)O2)c(=S)[nH]1 (stereo not drawn) [6-thio-dGTP]
Reply | 5
